Source: paper PMC5285354

Below: a set of entries, each annotated with reported Hemolysis HC10 (MHC), concentration of lipopeptide inducing 10% of hemolysis.
- Tested on: human red blood cells
- Format: cell-based
- Conditions: 1 h
Where a SMILES comes first, the peptide text is derived from it. The star is where a group is joined. Palmitoyl = CCCCCCCCCCCCCCCC(=O)*; Myristoyl = CCCCCCCCCCCCCC(=O)*; Lauroyl = CCCCCCCCCCCC(=O)*
Property Measured: Hemolysis HC10 (MHC), concentration of lipopeptide inducing 10% of hemolysis (µg/mL)

- CCCCCCCCCCCC(=O)N[C@@H](CCCCN)C(=O)N[C@@H](CCCCN)C(=O)N[C@@H](CCCCN)C(N)=O: 512
- CCCCCCCCCCCCCCCC(=O)N[C@@H](CCCCN)C(=O)NCC(=O)N[C@@H](CCCCN)C(=O)NCC(N)=O [C16-KGKG-NH2] (Palmitoyl-KGKG-NH2): 64
- CCCCCCCCCCCCCC(=O)N[C@@H](CCCCN)C(=O)N[C@@H](CCCCN)C(=O)N[C@@H](CCCCN)C(N)=O: 256
- CCCCCCCCCCCC(=O)N[C@@H](CCCCN)C(=O)NCC(N)=O [C12-KG-NH2] (Lauroyl-Lys-Gly-NH2): 1000
- CCCCCCCCCCCCCCCC(=O)N[C@@H](CCCCN)C(=O)NCC(N)=O [C16-KG-NH2] (Palmitoyl-Lys-Gly-NH2): 256
- CCCCCCCCCCCCCCCC(=O)N[C@@H](CCCCN)C(=O)NCC(=O)N[C@@H](CCCCN)C(N)=O [C16-KGK-NH2] (Palmitoyl-Lys-Gly-Lys-NH2): 64
- CCCCCCCCCCCC(=O)N[C@@H](CCCCN)C(=O)N[C@@H](CCCCN)C(=O)N[C@@H](CCCCN)C(=O)N[C@@H](CCCCN)C(N)=O [C12-KKKK-NH2] (Lauroyl-KKKK-NH2): 1000
- CCCCCCCCCC(=O)N[C@@H](CCCCN)C(=O)N[C@@H](CCCCN)C(N)=O: 4000
- CCCCCCCCCCCCCC(=O)N[C@@H](CCCCN)C(=O)N[C@@H](CCCCN)C(N)=O: 128
- CCCCCCCCCCCCCC(=O)N[C@@H](CCCCN)C(=O)N[C@@H](CCCCN)C(=O)N[C@@H](CCCCN)C(=O)N[C@@H](CCCCN)C(N)=O [C14-KKKK-NH2] (Myristoyl-KKKK-NH2): 256
- CCCCCCCCCCCC(=O)N[C@@H](CCCCN)C(=O)NCC(=O)N[C@@H](CCCCN)C(N)=O [C12-KGK-NH2] (Lauroyl-Lys-Gly-Lys-NH2): 1000
- CCCCCCCCCCCC(=O)N[C@@H](CCCCN)C(=O)NCC(=O)N[C@@H](CCCCN)C(=O)NCC(N)=O [C12-KGKG-NH2] (Lauroyl-KGKG-NH2): 256
- CCCCCCCCCCCCCCCC(=O)N[C@@H](CCCCN)C(N)=O: 512
- CCCCCCCCCCCCCC(=O)N[C@@H](CCCCN)C(N)=O: 512
- CCCCCCCCCCCC(=O)N[C@@H](CCCCN)C(N)=O: 1000
- CCCCCCCCCCCCCC(=O)N[C@@H](CCCCN)C(=O)NCC(=O)N[C@@H](CCCCN)C(N)=O [C14-KGK-NH2] (Myristoyl-Lys-Gly-Lys-NH2): 128
- CCCCCCCCCCCCCC(=O)N[C@@H](CCCCN)C(=O)NCC(=O)N[C@@H](CCCCN)C(=O)NCC(N)=O [C14-KGKG-NH2] (Myristoyl-KGKG-NH2): 512

----------
- System: Candida tropicalis (PCM 2681)
- Type: cell-based
- Conditions: PCM 2681, 48 h
Where a SMILES comes first, the peptide text is derived from it. The star is where a group is joined. Lauroyl = CCCCCCCCCCCC(=O)*; Octanoyl = CCCCCCCC(=O)*
Property Measured: MFC Candida tropicalis

- CCCCCCCCCCCC(=O)N[C@@H](CCCCN)C(=O)NCC(N)=O [C12-KG-NH2] (Lauroyl-Lys-Gly-NH2): 512 µg/mL
- CCCCCCCC(=O)N[C@@H](CCCCN)C(=O)NCC(=O)N[C@@H](CCCCN)C(=O)NCC(N)=O [C8-KGKG-NH2] (Octanoyl-KGKG-NH2): 2000 µg/mL
- CCCCCCCCCCCCCC(=O)N[C@@H](CCCCN)C(N)=O: >512 µg/mL
- CCCCCCCCCC(=O)N[C@@H](CCCCN)C(=O)N[C@@H](CCCCN)C(=O)N[C@@H](CCCCN)C(N)=O: 2000 µg/mL

----------
- Tested on: Klebsiella pneumoniae (ATCC 700603)
- Assay type: cell-based
- Conditions: ATCC 700603, 18 h
Where a SMILES comes first, the peptide text is derived from it. The star is where a group is joined. Palmitoyl = CCCCCCCCCCCCCCCC(=O)*; Myristoyl = CCCCCCCCCCCCCC(=O)*
Property Measured: MBC Klebsiella pneumoniae, lipopeptides without TFA counter ion (µg/mL)

- CCCCCCCCCCCCCC(=O)N[C@@H](CCCCN)C(=O)NCC(=O)N[C@@H](CCCCN)C(=O)NCC(N)=O [C14-KGKG-NH2] (Myristoyl-KGKG-NH2): 128
- CCCCCCCCCCCCCC(=O)N[C@@H](CCCCN)C(=O)N[C@@H](CCCCN)C(N)=O: 128
- CCCCCCCCCCCCCCCC(=O)N[C@@H](CCCCN)C(=O)NCC(N)=O [C16-KG-NH2] (Palmitoyl-Lys-Gly-NH2): 256
- CCCCCCCCCCCCCC(=O)N[C@@H](CCCCN)C(=O)N[C@@H](CCCCN)C(=O)N[C@@H](CCCCN)C(N)=O: 256
- CCCCCCCCCCCCCCCC(=O)N[C@@H](CCCCN)C(=O)N[C@@H](CCCCN)C(=O)N[C@@H](CCCCN)C(N)=O: 4
- CCCCCCCCCCCCCCCC(=O)N[C@@H](CCCCN)C(=O)N[C@@H](CCCCN)C(=O)N[C@@H](CCCCN)C(=O)N[C@@H](CCCCN)C(N)=O [C16-KKKK-NH2] (Palmitoyl-KKKK-NH2): 4

----------
# Lookup of reported MIC Candida albicans keyed by entry
- Tested on: Candida albicans (ATCC 10231)
- Format: cell-based
- Conditions: ATCC 10231, 48 h
Where a SMILES comes first, the peptide text is derived from it. The star is where a group is joined. Palmitoyl = CCCCCCCCCCCCCCCC(=O)*; Myristoyl = CCCCCCCCCCCCCC(=O)*; Lauroyl = CCCCCCCCCCCC(=O)*; Decanoyl = CCCCCCCCCC(=O)*; Octanoyl = CCCCCCCC(=O)*
Property Measured: MIC Candida albicans (µg/mL)

* CCCCCCCCCCCCCC(=O)N[C@@H](CCCCN)C(=O)NCC(N)=O [C14-KG-NH2] (Myristoyl-Lys-Gly-NH2) | 128
* CCCCCCCCCCCCCC(=O)N[C@@H](CCCCN)C(=O)NCC(=O)N[C@@H](CCCCN)C(=O)NCC(N)=O [C14-KGKG-NH2] (Myristoyl-KGKG-NH2) | 128
* CCCCCCCCCCCCCCCC(=O)N[C@@H](CCCCN)C(=O)N[C@@H](CCCCN)C(=O)N[C@@H](CCCCN)C(N)=O [C16-KKK-NH2] | 128
* CCCCCCCC(=O)N[C@@H](CCCCN)C(=O)NCC(=O)N[C@@H](CCCCN)C(=O)NCC(N)=O [C8-KGKG-NH2] (Octanoyl-KGKG-NH2) | 2000
* CCCCCCCCCCCCCCCC(=O)N[C@@H](CCCCN)C(N)=O [C16-K-NH2] | 512
* CCCCCCCC(=O)N[C@@H](CCCCN)C(=O)N[C@@H](CCCCN)C(=O)N[C@@H](CCCCN)C(=O)N[C@@H](CCCCN)C(N)=O [C8-KKKK-NH2] (Octanoyl-KKKK-NH2) | 2000
* CCCCCCCC(=O)N[C@@H](CCCCN)C(=O)N[C@@H](CCCCN)C(=O)N[C@@H](CCCCN)C(N)=O [C8-KKK-NH2] | 2000
* CCCCCCCC(=O)N[C@@H](CCCCN)C(=O)N[C@@H](CCCCN)C(N)=O [C8-KK-NH2] | 1000
* CCCCCCCCCCCCCC(=O)N[C@@H](CCCCN)C(=O)N[C@@H](CCCCN)C(=O)N[C@@H](CCCCN)C(N)=O [C14-KKK-NH2] | 128
* CCCCCCCCCCCCCCCC(=O)N[C@@H](CCCCN)C(=O)NCC(N)=O [C16-KG-NH2] (Palmitoyl-Lys-Gly-NH2) | 128
* CCCCCCCC(=O)N[C@@H](CCCCN)C(N)=O [C8-K-NH2] | 1000
* CCCCCCCCCCCC(=O)N[C@@H](CCCCN)C(=O)N[C@@H](CCCCN)C(=O)N[C@@H](CCCCN)C(=O)N[C@@H](CCCCN)C(N)=O [C12-KKKK-NH2] (Lauroyl-KKKK-NH2) | 256
* CCCCCCCCCC(=O)N[C@@H](CCCCN)C(=O)NCC(=O)N[C@@H](CCCCN)C(=O)NCC(N)=O [C10-KGKG-NH2] (Decanoyl-KGKG-NH2) | 1000
* CCCCCCCC(=O)N[C@@H](CCCCN)C(=O)NCC(=O)N[C@@H](CCCCN)C(N)=O [C8-KGK-NH2] (Octanoyl-Lys-Gly-Lys-NH2) | 2000
